Task for the reader: assign each of the following molecules its reported composite z-score.
study_target: Neurogenic locus notch homolog protein 3 (Homo sapiens)
test_protocol: small molecules binding NOTCH3 protein – biochemical, 635/667 nm fluorescence, primary screen (AID 1096)
assay_conditions: small-molecule microarray, 635 nm fluorescence, higher = more signal

Can you share its composite z-score? I mean this molecule: CC(C)N1C(=O)C[C@@](C(=O)NC2CC2)(c2ccc([N+](=O)[O-])cc2)[C@H]1c1ccc(CO)cc1 -0.46

And C=C[C@@H](OC)[C@H](OC(=O)Nc1ccc(OC)cc1)c1ccc(O)c(F)c1 ? 0.0981

And COCCCNC(=O)[C@@]1(CCC(=O)OC(C)(C)C)N=C(c2ccc(OCCCO)cc2)O[C@H]1c1ccccc1N=[N+]=[N-] ? 0.377

And O=C1NC(=O)C2C1C=CC(C(O)c1ccco1)N2Nc1ccc(Cl)cc1Cl (stereo not drawn) ? 0.417

And C=CCNC(=O)[C@@H]1[C@H]2C(=O)O[C@H](c3ccccc3)[C@H](c3ccccc3)N2[C@H](c2ccc(OCCO)cc2)[C@@]12C(=O)N(C(=O)OCCOC)c1ccc(C#Cc3ccc(OC)cc3)cc12 ? 1.05

And CCCC=C(CCC)[C@@H](NC(=O)C(C)(C)C)c1ccc(C(=O)OC)cc1 ? 0.803

And C=CCC(OC(C)=O)[C@@H]1[C@@H](N(Cc2cc3ccccc3o2)C(=O)Cc2ccc(F)cc2)c2cc(OCCCO)ccc2N1C(=O)Cc1ccc2ccccc2c1 (stereo partly drawn) ? -0.413

And C=CC[C@@H](OC(=O)Nc1ccc(OC)cc1)c1ccc(O)c(F)c1 ? -0.6
